Hey, just so you know, these numbers are from patent US12371454B2.

Biological target: Kras and SOS1 (biotin-tagged human Kras loaded with GDP, His-tagged human SOS1) (Homo sapiens, UniProt P01116, G12D)
Construct: made in house; host or cells: E. coli (stated for Kras only)
Sequence (P01116 1-188 isoform P01116-2 G12D): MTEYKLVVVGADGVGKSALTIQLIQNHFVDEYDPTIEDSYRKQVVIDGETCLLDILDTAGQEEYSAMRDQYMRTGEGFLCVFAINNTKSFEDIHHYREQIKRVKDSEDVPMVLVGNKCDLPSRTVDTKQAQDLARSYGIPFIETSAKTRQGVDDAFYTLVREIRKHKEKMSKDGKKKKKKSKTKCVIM
Assay: Protein-protein interaction inhibition between Kras and SOS1 (KrasGl2D-SOS PPI) using AlphaScreen
Format: binding
Conditions: AlphaScreen; biotin-tagged human Kras loaded with GDP, His-tagged human SOS1; read-out: KRAS G12D-SOS PPI IC50
Protocol: Protein-Protein Interaction Inhibition Between Kras and SOS1 (KrasGl2D-SOS PPI) Using AlphaScreen Protein-protein interaction inhibition (PPI) between Kras and SOS1 was measured by energy transfer from nickel-conjugated donor beads to streptavidin-conjugated acceptor beads using biotin-tagged human Kras expressed in E. coli and loaded with GDP after purification and His-tagged human SOS1 enzyme. […]
Positions of bridges follow the written chain, without caps; N, C: chain ends. Non-standard residues stand in square brackets, D forms with d. Residues, ends and D or L forms follow the SMILES beside them. *: point of attachment. hPhe(3-Cl-4-CF3) = N[C@@H](CCc1ccc(C(F)(F)F)c(Cl)c1)C(=O)O; hPhe(4-CF3) = N[C@@H](CCc1ccc(C(F)(F)F)cc1)C(=O)O; NMeAbu(4,4,4-F3) = CN[C@@H](CC(F)(F)F)C(=O)O; NMePhe(4-Cl) = CN[C@@H](Cc1ccc(Cl)cc1)C(=O)O; NMePhe(4-F) = CN[C@@H](Cc1ccc(F)cc1)C(=O)O; NMeAla(cPent) = CN[C@@H](CC1CCCC1)C(=O)O; NMeGly(cPent) = CN[C@H](C(=O)O)C1CCCC1; NMeCha = CN[C@@H](CC1CCCCC1)C(=O)O; Azetidine(3,3-F2) = FC1(F)CN(*)C1; NMeChg = CN[C@H](C(=O)O)C1CCCCC1; NMeD = CN[C@@H](CC(=O)O)C(=O)O; NMeL = CN[C@@H](CC(C)C)C(=O)O; NMeV = CN[C@H](C(=O)O)C(C)C; d(β3hA) = C[C@@H](N)CC(=O)O; Morpholide = C1CN(*)CCO1; NMeA = CN[C@@H](C)C(=O)O; Piperidide = C1CCN(*)CC1; Ac5c = NC1(C(=O)O)CCCC1; Sar = CNCC(=O)O
What pIC50 was measured for each of the following?
One number for each entry, as −log10 of the molar value.

Solved cases below.
# Compound, Endpoint Value
rows = [
    ("CC[C@H](C)[C@@H]1NC(=O)[C@H](C)N(C)C(=O)C[C@@H](C(=O)N2CCCCC2)N(C)C(=O)[C@H](C(C)C)N(C)C(=O)[C@H](CC(C)C)NC(=O)[C@H](CC(=O)N2CC(F)(F)C2)N(C)C(=O)[C@H](CCc2ccc(C(F)(F)F)c(Cl)c2)NC(=O)CN(C)C(=O)[C@H](CC2CCCCC2)N(C)C(=O)CN(C)C(=O)CN(C)C1=O [Compound 190] ([NMeA]I[Sar][Sar][NMeCha][Sar][hPhe(3-Cl-4-CF3)][NMeD](Azetidine(3,3-F2))L[NMeV][NMeD]-Piperidide; lactam N-11)", 6.82),
    ("CC[C@H](C)[C@@H]1NC(=O)[C@H](C)N(C)C(=O)C[C@@H](C)NC(=O)[C@H](C(C)C)N(C)C(=O)C2(CCCC2)NC(=O)[C@@H]2CCCN2C(=O)[C@H](CCc2ccc(C(F)(F)F)c(Cl)c2)NC(=O)CN(C)C(=O)[C@H](Cc2ccc(F)cc2)N(C)C(=O)[C@@H]2CCCN2C(=O)CN(C)C1=O [Compound 1732] (cyclo([Ac5c][NMeV][d(β3hA)][NMeA]I[Sar]P[NMePhe(4-F)][Sar][hPhe(3-Cl-4-CF3)]P))", 8.26),
    ("CC[C@H](C)[C@@H]1NC(=O)[C@H](C)N(C)C(=O)C[C@@H](C)NC(=O)[C@H](CC(C)C)N(C)C(=O)[C@H](CC2CCCCC2)N(C)C(=O)[C@@H]2CCCN2C(=O)[C@H](CCc2ccc(C(F)(F)F)cc2)NC(=O)CN(C)C(=O)[C@H](Cc2ccc(Cl)cc2)N(C)C(=O)CN(C)C(=O)CN(C)C1=O [Compound 383] (cyclo(I[Sar][Sar][NMePhe(4-Cl)][Sar][hPhe(4-CF3)]P[NMeCha][NMeL][d(β3hA)][NMeA]))", 6.59),
    ("CC[C@H](C)[C@@H]1NC(=O)[C@H](CC(C)C)N(C)C(=O)C[C@@H](C(=O)N2CCCCC2)N(C)C(=O)[C@H](C2CCCCC2)N(C)C(=O)C2(CCCC2)NC(=O)[C@@H]2CCCN2C(=O)[C@H](CCc2ccc(C(F)(F)F)c(Cl)c2)NC(=O)CN(C)C(=O)[C@H](C2CCCC2)N(C)C(=O)CN(C)C(=O)CN(C)C1=O [Compound 1669] ([NMeL]I[Sar][Sar][NMeGly(cPent)][Sar][hPhe(3-Cl-4-CF3)]P[Ac5c][NMeChg][NMeD]-Piperidide; lactam N-11)", 8.74),
]

--- query ---
Name the recorded pIC50 of the compound listed here: CC[C@H](C)[C@@H]1NC(=O)[C@H](CC(F)(F)F)N(C)C(=O)C[C@@H](C(=O)N2CCOCC2)N(C)C(=O)[C@H](C2CCCCC2)N(C)C(=O)C2(CCCC2)NC(=O)[C@@H]2CCCN2C(=O)[C@H](CCc2ccc(C(F)(F)F)c(Cl)c2)NC(=O)CN(C)C(=O)[C@H](CC2CCCC2)N(C)C(=O)CN(C)C(=O)CN(C)C1=O [Compound 367] ([NMeAbu(4,4,4-F3)]I[Sar][Sar][NMeAla(cPent)][Sar][hPhe(3-Cl-4-CF3)]P[Ac5c][NMeChg][NMeD]-Morpholide; lactam N-11)
9.22
